target: Cyclic GMP-AMP synthase (Homo sapiens, UniProt Q8N884); test: Inhibition of cGAS in human THP1-Dual cells preincubated for 1 hr followed by cGAMP addition and measured after 24 hrs by luminescence based QUANTI-Luc assay
Sequence (Q8N884 whole entry): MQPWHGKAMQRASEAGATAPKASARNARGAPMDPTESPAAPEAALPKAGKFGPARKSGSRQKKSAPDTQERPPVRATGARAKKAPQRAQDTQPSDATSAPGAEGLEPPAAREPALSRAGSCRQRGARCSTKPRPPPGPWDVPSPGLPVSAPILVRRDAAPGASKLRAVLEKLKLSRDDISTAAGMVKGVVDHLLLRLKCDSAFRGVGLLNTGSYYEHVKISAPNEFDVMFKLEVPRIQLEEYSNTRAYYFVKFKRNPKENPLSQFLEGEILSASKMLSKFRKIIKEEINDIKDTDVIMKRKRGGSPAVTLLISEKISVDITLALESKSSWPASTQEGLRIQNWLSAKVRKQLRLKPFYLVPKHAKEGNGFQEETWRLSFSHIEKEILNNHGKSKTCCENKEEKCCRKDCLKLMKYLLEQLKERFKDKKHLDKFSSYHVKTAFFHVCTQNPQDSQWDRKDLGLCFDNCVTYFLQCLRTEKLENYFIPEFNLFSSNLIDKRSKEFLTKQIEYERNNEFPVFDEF

| MOLECULE | ENDPOINT_UNIT | IC50 |
| --- | --- | --- |
| Nc1cc(-c2cc(Cl)c(Cl)c3[nH]c4c(c23)CC2(CC4)CCN(C(=O)CO)C2)ccn1 (configuration not stated) | µM | 6.45 |
| O=C(CO)N1CCC2(CCc3[nH]c4c(Cl)c(Cl)cc(-c5ccc(F)nc5F)c4c3C2)C1 (configuration not stated) | µM | 7.15 |
| O=C(CO)N1CCC2(CCc3[nH]c4c(Cl)c(Cl)cc(-c5ccnc(C(F)(F)F)c5)c4c3C2)C1 (configuration not stated) | µM | 4.45 |
| O=C(CO)N1CCC2(CCc3[nH]c4c(Cl)c(Cl)cc(-c5ccnc(C(F)F)c5)c4c3C2)C1 (configuration not stated) | µM | 6.43 |
| O=C(CO)N1CCC2(CCc3[nH]c4c(Cl)c(Cl)cc(-c5cnc(C(F)(F)F)nc5)c4c3C2)C1 (configuration not stated) | µM | 7.54 |
| Cn1ncc(-c2cc(Cl)c(Cl)c3[nH]c4c(c23)CC2(CC4)CCN(C(=O)CO)C2)n1 (configuration not stated) | µM | 10.5 |
| O=C(CO)N1CCC2(CCc3[nH]c4c(Cl)c(Cl)cc(-c5ccnc(F)c5)c4c3C2)C1 (configuration not stated) | µM | 6.27 |
